# Test system: NCI-H358
# protocolDescription: Antiproliferative activity against human NCI-H358 cells harboring KRAS G12C mutant assessed as growth inhibition measured after 72 hrs by SRB assay
# Format: functional, cell-based
# measurementParameters: nci-h358
readoutKind: IC50 (nM)
A number alone suffices; assume nM.

>>> obsvalue("C=CC(=O)N1CCN(c2nc(=O)n(-c3c(C)ccnc3C(C)C)c3c(F)c(-c4c(O)cccc4F)ncc23)[C@@H](C)C1 (stereo in doubt; 26a)")
260
>>> obsvalue("C=CC(=O)N1CCN(c2nc(=O)n(-c3c(C)ccnc3C(C)C)c3c(F)c(-c4c(O)cccc4F)ncc23)[C@@H](C)C1 (stereo in doubt; 26ab)")
880

Now for the molecule whose IC50 we want.
Query string: Supply IC50 value. Item: C=CC(=O)N1CCN(c2nc(=O)n(-c3c(C)ccnc3C(C)C)c3c(F)c(-c4c(O)cccc4F)ncc23)[C@@H](C)C1 (stereo in doubt; 26aa)
Result string: 300

* * *

# testedTarget: GTPase KRas (Homo sapiens)
# protocolDescription: Inhibition of recombinant human N-terminal His-tagged KRAS (2 to 185 residues) expressed in baculovirus infected Sf9 insect cells using GTP as substrate measured after 2 hrs by GTPase-glo assay
# measurementParameters: sf9
readoutKind: IC50

>>> obsvalue("C=CC(=O)N1CCN(c2nc(=O)n(-c3c(C)ccnc3C(C)C)c3c(F)c(-c4c(O)cccc4F)ncc23)[C@@H](C)C1 (stereo in doubt; 26ab)")
"> 10 µM"

Query string: Note down IC50 recorded for C=CC(=O)N1CCN(c2nc(=O)n(-c3c(C)ccnc3C(C)C)c3c(F)c(-c4c(O)cccc4F)ncc23)[C@@H](C)C1 (stereo in doubt; 26aa)
Result string: > 10 µM

* * *

# Test system: MIA PaCa-2
# protocolDescription: Antiproliferative activity against human MIA PaCa-2 cells harboring KRAS G12C mutant assessed as growth inhibition measured after 72 hrs by CCK8 assay
# Format: functional, cell-based
# measurementParameters: Homo sapiens, MIA PaCa-2, 72 h
Recorded log10 IC50 by entry
Please be aware that the numbers have been log10-transformed from IC50 in nM.

These solved cases illustrate the format of a correct answer.
>>> obsvalue("C=CC(=O)N1CCN(c2ncnc3c(F)c(-c4c(O)cccc4F)c(Cl)cc23)CC1")
3.03
>>> obsvalue("C=CC(=O)N1CCN(c2nc(=O)n(-c3c(C(C)C)ncnc3C(C)C)c3c(F)c(-c4c(O)cccc4F)ncc23)[C@@H](C)C1")
2.63
>>> obsvalue("C=CC(=O)N1CCN(c2nc(=O)n(-c3c(C)ccnc3C(C)C)c3nc(-c4c(O)cccc4F)c(F)cc23)[C@@H](C)C1")
1.46

Query string: Please report the measured log10 IC50 for "C=CC(=O)N1CCN(c2nc(=O)n(-c3c(C)ccnc3C(C)C)c3nc4c(cc23)oc2cc(F)c(F)cc24)[C@@H](C)C1"
Result string: 3.90

Query string: Using known records, supply log10 IC50 for "C=CC(=O)N1CCN(c2nc(=O)n(-c3c(C)ccnc3C(C)C)c3c(Cl)c(-c4c(O)cccc4F)ncc23)[C@@H](C)C1"
Result string: 3.43

* * *

# Tested on: NCI-H1975
# protocolDescription: Antiproliferative activity against human NCI-H1975 cells harboring wild-type KRAS assessed as growth inhibition measured after 72 hrs by SRB assay
# Assay type: functional, cell-based
# measurementParameters: NCI-H1975, 72 h
readoutKind: IC50

Query string: Output measured IC50 for this item: "C=CC(=O)N1CCN(c2nc(=O)n(-c3c(C(C)C)ncnc3C(C)C)c3c(F)c(-c4c(O)cccc4F)ncc23)[C@@H](C)C1"
Result string: 8.99 µM

Query string: Answer with the recorded IC50 of "C=CC(=O)N1CCN(c2nc(=O)n(-c3c(C)ccnc3C(C)C)c3c(Cl)c(-c4c(O)cccc4F)ncc23)[C@@H](C)C1" only.
Result string: > 10 µM

Query string: Respond only with IC50 recorded for "C=CC(=O)N1CCN(c2nc(=O)n(-c3c(C)ccnc3C(C)C)c3nc(-c4c(O)cccc4F)c(F)cc23)[C@@H](C)C1"
Result string: > 10 µM

Query string: Item C=CC(=O)N1CCN(c2nc(=O)n(-c3c(C)ccnc3C(C)C)c3c(F)c(-c4c(O)cccc4F)ncc23)[C@@H](C)C1 (stereo in doubt; 26a) : provide IC50
Result string: > 10 µM
